# subject of test: DNA dC->dU-editing enzyme APOBEC-3G (Homo sapiens)
# protocol details: APOBEC3G deaminase inhibitor retest, confirmation, biochemical, fluorescence, single-stranded DNA substrate, single concentration (AID 493152)
# reported conditions: recombinant A3G ssDNA deaminase, UDG/FAM-TAMRA fluorescence; at 20 µM; active compounds read high
Some of the results follow.
Please respond with reported inhibition for every item in the list.
Write the number in % without appending the unit.

Query: API: value(readout= inhibition, system= DNA dC->dU-editing enzyme APOBEC-3G (Homo sapiens), query= S=c1[nH]nc(Nc2ccccc2)s1 )
Reply: 68.3

Query: One more compound: S=c1[nH]ccn1-c1ccc(Cl)cc1
Reply: 74

Query: One more compound: Cc1cccc(-n2c(N)c(C(=O)N3CCN(C)CC3)sc2=S)c1
Reply: 77.7

Query: One more compound: CCC(CC)c1nnc(NC(=O)C2CCN(C(=O)c3ccco3)CC2)s1
Reply: 24.5

Entry source: PubChem BioAssay AID493152
